Test system: Staphylococcus aureus
Experiment: Antibacterial activity against methicillin-resistant Staphylococcus aureus isolated form patient blood measured after 18 to 24 hrs on day 1 isolation by Etest
Format: functional
Endpoint: MIC90

Observe how each entry below is paired with its result.
CN(C)c1cc(NC(=O)CNC(C)(C)C)c(O)c2c1C[C@H]1C[C@H]3[C@H](N(C)C)C(O)=C(C(N)=O)C(=O)[C@@]3(O)C(O)=C1C2=O [TIGECYCLINE]	0.25 µg/mL
CCCCCCCCCC(=O)N[C@@H](Cc1c[nH]c2ccccc12)C(=O)N[C@H](CC(N)=O)C(=O)N[C@@H](CC(=O)O)C(=O)N[C@@H]1C(=O)NCC(=O)N[C@@H](CCCN)C(=O)N[C@@H](CC(=O)O)C(=O)N[C@H](C)C(=O)N[C@@H](CC(=O)O)C(=O)NCC(=O)N[C@H](CO)C(=O)N[C@@H]([C@H](C)CC(=O)O)C(=O)N[C@@H](CC(=O)c2ccccc2N)C(=O)O[C@@H]1C	0.75 µg/mL
CN[C@H](CC(C)C)C(=O)N[C@H]1C(=O)N[C@@H](CC(N)=O)C(=O)N[C@H]2C(=O)N[C@H]3C(=O)N[C@H](C(=O)N[C@H](C(=O)O)c4cc(O)cc(O)c4-c4cc3ccc4O)[C@H](O)c3ccc(c(Cl)c3)Oc3cc2cc(c3O[C@@H]2O[C@H](CO)[C@@H](O)[C@H](O)[C@H]2O[C@H]2C[C@](C)(N)[C@H](O)[C@H](C)O2)Oc2ccc(cc2Cl)[C@H]1O [VANCOMYCIN]	1.5 µg/mL

Kindly review the next compound as well.
Please give the measured MIC90 for this compound: CC(=O)NC[C@H]1CN(c2ccc(N3CCOCC3)c(F)c2)C(=O)O1 [LINEZOLID] 1.5 µg/mL

The values you see were collected from ChEMBL document CHEMBL1649298.
